B1: HDV Ribozyme (parent)
chain: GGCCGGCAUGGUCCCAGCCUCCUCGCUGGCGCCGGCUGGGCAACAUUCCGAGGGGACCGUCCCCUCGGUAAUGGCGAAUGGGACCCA

Variants of: B1
ASSAY_NOTES: self-cleavage, relative activity (ratio to wild type); higher = more cleavage; co-transcriptional
MEASURED_ENDPOINT: self-cleavage
Numbers only.

Worked examples, 3 variants total:
U27A C36G ... 0.298
A8C C75U ... 0.128
G10C G53C ... 1.02

Let us move to another entry and its self-cleavage.
Which measured self-cleavage value corresponds to G28C C66A ? 0.122

The origin of these recorded values is the RNAGym collection of RNA variant scans (doi:10.7554/elife.80360).
